Target: COX-2 (Homo sapiens, UniProt P35354)
Construct: purchased Beyotime S0168
Sequence (P35354 18-604): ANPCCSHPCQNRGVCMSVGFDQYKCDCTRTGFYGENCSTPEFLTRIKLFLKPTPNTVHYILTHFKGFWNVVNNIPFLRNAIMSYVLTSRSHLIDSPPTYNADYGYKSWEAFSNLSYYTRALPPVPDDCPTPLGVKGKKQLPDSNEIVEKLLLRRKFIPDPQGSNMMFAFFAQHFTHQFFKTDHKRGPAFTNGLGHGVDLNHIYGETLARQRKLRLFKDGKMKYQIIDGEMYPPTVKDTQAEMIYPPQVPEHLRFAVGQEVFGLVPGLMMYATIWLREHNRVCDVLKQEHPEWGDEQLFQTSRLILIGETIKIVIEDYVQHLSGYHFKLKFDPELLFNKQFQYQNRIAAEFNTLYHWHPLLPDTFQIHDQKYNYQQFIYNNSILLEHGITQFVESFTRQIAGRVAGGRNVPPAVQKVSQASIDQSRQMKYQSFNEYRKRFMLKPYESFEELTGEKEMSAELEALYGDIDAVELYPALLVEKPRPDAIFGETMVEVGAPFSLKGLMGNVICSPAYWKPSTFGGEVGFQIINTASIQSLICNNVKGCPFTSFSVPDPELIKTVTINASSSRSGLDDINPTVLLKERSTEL
Assay: Anti-COX-2 assay (COX-2 Inhibitor Screening Kit)
Type: biochemical
Conditions: 200 μM, single replicates
measure name: inhibition at 200 µM

Given O=c1c(O[C@@H]2O[C@H](CO)[C@@H](O)[C@H](O)[C@H]2O)c(-c2ccc(O)c(O)c2)oc2cc(O)cc(O)c12 , state its recorded inhibition at 200 µM.
79.2%

Given C[C@@H]1O[C@@H](OC[C@H]2O[C@@H](Oc3c(-c4ccc(O)c(O)c4)oc4cc(O)cc(O)c4c3=O)[C@H](O)[C@@H](O)[C@@H]2O)[C@H](O)[C@H](O)[C@H]1O , state its recorded inhibition at 200 µM.
84.3%

Given O=c1c(OC2OC(CO)C(O)C(O)C2OC2OC(CO)C(O)C(O)C2O)c(-c2ccc(O)c(O)c2)oc2cc(O)cc(O)c12 (stereo not drawn) [compound 16, Quercetin-3-O-sophoroside] , state its recorded inhibition at 200 µM.
80.9%

Given O=c1cc(-c2ccc(O)c(O)c2)oc2c(C3OCC(O)C(O)C3O)c(O)c(C3OC(CO)C(O)C(O)C3O)c(O)c12 (stereo not drawn) , state its recorded inhibition at 200 µM.
80.8%

Given O=c1cc(-c2ccc(O)c(O)c2)oc2cc(O)c(C3OC(CO)C(O)C(O)C3O)c(O)c12 [compound 18, Luteolin-6-C-β-D-glucoside] , state its recorded inhibition at 200 µM.
90.6%

Given O=C(O)CC(=O)OCC1OC(Oc2c(-c3ccc(O)c(O)c3)oc3cc(O)cc(O)c3c2=O)C(O)C(O)C1O (stereo not drawn) [compound 27, Quercetin 3-O-(6″-malonyl-glucoside)] , state its recorded inhibition at 200 µM.
75.5%
